Entries and their measured -TdeltaS follow.
# Test system: Transthyretin (Homo sapiens), P02766 [V50M]
# experimental_protocol: Binding affinity to N-terminal hexa-histidine tagged TTR V30M mutant (unknown origin) expressed in Escherichia coli assessed as change in entropy at 60 uM by ITC assay
Just the number please, in kcal/mol, no unit attached.

Query string: Return -TdeltaS (reported value) for this compound: `COc1cc(O)cc(/C=C/c2ccc(O)cc2)c1`
Result string: 6.2

Query string: Return -TdeltaS (reported value) for this compound: `Oc1ccc(/C=C/c2cc(O)cc(O)c2)cc1`
Result string: 6.6

Query string: Please supply the value of reported -TdeltaS for the item `Oc1cc(O)cc(/C=C/c2ccc(O)c(O)c2)c1`
Result string: 6.4

* * *

# Test system: Transthyretin (Homo sapiens), P02766 [V50M]
# experimental_protocol: Binding affinity to N-terminal hexa-histidine tagged TTR V30M mutant (unknown origin) expressed in Escherichia coli assessed as change in enthalpy at 60 uM by ITC assay
experimental_endpoint: deltaH (kcal/mol)
Write the value in kcal/mol as a bare number.

Some solved entries appear below for comparison.
[
  {
    "compound": "Oc1ccc(/C=C/c2cc(O)cc(O)c2)cc1 [RESVERATROL]",
    "experimental_value": -15
  },
  {
    "compound": "COc1cc(/C=C/c2ccc(O)cc2)cc(OC)c1 [PTEROSTILBENE]",
    "experimental_value": -14
  },
  {
    "compound": "Oc1cc(O)cc(/C=C/c2ccc(O)cc2O)c1 [OXYRESVERATROL]",
    "experimental_value": -16
  },
  {
    "compound": "Oc1cc(O)cc(/C=C/c2ccc(O)c(O)c2)c1 [PICEATANNOL]",
    "experimental_value": -14
  },
  {
    "compound": "COc1cc(/C=C/c2cc(O)cc(O)c2)ccc1O",
    "experimental_value": -13
  }
]

Query string: Answer with reported deltaH of `COc1cc(O)cc(/C=C/c2ccc(O)cc2)c1`
Result string: -14

Query string: Using known records, supply deltaH for `Oc1cc(O)cc(/C=C/c2c(O)cccc2O)c1`
Result string: -8.5

Query string: For the compound `O=C(O)c1cc(-c2ccc(F)cc2F)ccc1O` , give its reported deltaH.
Result string: -13

Query string: Supply recorded deltaH for `O=C(O)c1ccc2nc(-c3cc(Cl)cc(Cl)c3)oc2c1` here.
Result string: -5

* * *

# tested_on: Transthyretin (Homo sapiens, UniProt P02766, V50M)
# experimental_protocol: Inhibition of recombinant N-terminal hexa-histidine tagged TTR V30M mutant (unknown origin) expressed in Escherichia coli assessed as acid mediated amyloid-like fibril formation by measuring turbidity incubated for 1 week at 310K in presence of sodium acetate by absorbance based assay
pKi: −log10 of the molar value.
Param threshold (5) applies to pKi; output Met when value >= threshold, Not met when value < threshold.

Solved cases below.
[
  {
    "compound": "COc1cc(/C=C/c2ccc(O)cc2)cc(OC)c1",
    "label_class": "Met"
  },
  {
    "compound": "COc1cc(O)cc(/C=C/c2ccc(O)cc2)c1",
    "label_class": "Met"
  },
  {
    "compound": "COc1cc(/C=C/c2cc(O)cc(O)c2)ccc1O",
    "label_class": "Met"
  },
  {
    "compound": "CC(=O)Oc1ccc(/C=C/c2cc(OC(C)=O)cc(OC(C)=O)c2)cc1",
    "label_class": "Met"
  }
]

In the following, a different compound is considered.
Query string: Assess whether reported pKi for COc1cc(/C=C/c2ccc(OC)c(OC)c2)cc(OC)c1 [(E)-3,4,3',5'-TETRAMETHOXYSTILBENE] sits at 5 or higher.
Result string: Not met
